Species on record: Homo sapiens
Assay: Selectivity ratio of IC50 for recombinant human MMP12 to IC50 for recombinant human MMP2
# Lookup of reported Ratio IC50 keyed by entry
PARAMETER: Ratio IC50

[
  {
    "COMPOUND STRUCTURE": "CC[C@H](C)[C@@H](C(=O)NCCC(N)=O)N(C)C(=O)[C@H](CC(C)C)NC(=O)[C@H](CCN)NC(=O)CC[C@@H](NS(=O)(=O)c1ccc(NC(=O)c2ccc(Cl)cc2)cc1)C(=O)O",
    "NUMERIC VALUE": 1200
  },
  {
    "COMPOUND STRUCTURE": "CC[C@H](C)[C@@H](C(=O)NCCCCC(N)=O)N(C)C(=O)[C@H](CC(C)C)NC(=O)[C@H](CCN)NC(=O)CC[C@@H](NS(=O)(=O)c1ccc(NC(=O)c2ccc(Cl)cc2)cc1)C(=O)O",
    "NUMERIC VALUE": 1600
  },
  {
    "COMPOUND STRUCTURE": "CC(C)C[C@H](NC(=O)[C@@H]1CCCN1C(=O)CC[C@@H](NS(=O)(=O)c1ccc(NC(=O)c2ccc(C(N)=O)cc2)cc1)C(=O)O)C(=O)N(C)[C@@H](CCC(=O)O)C(=O)NCCCCC(N)=O",
    "NUMERIC VALUE": 170
  },
  {
    "COMPOUND STRUCTURE": "CC[C@H](C)[C@@H](C(=O)N1CCC[C@H]1CC(N)=O)N(C)C(=O)[C@H](CC(C)C)NC(=O)[C@H](CCN)NC(=O)CC[C@@H](NS(=O)(=O)c1ccc(NC(=O)c2ccc(Cl)cc2)cc1)C(=O)O",
    "NUMERIC VALUE": 470
  },
  {
    "COMPOUND STRUCTURE": "CC[C@H](C)[C@@H](C(=O)N1CCC[C@H]1CC(N)=O)N(C)C(=O)[C@H](CC(C)C)NC(=O)[C@H](CCN)NC(=O)CC[C@@H](NS(=O)(=O)c1ccc(NC(=O)c2ccccc2)cc1)C(=O)O",
    "NUMERIC VALUE": 1300
  },
  {
    "COMPOUND STRUCTURE": "CC[C@H](C)[C@@H](C(=O)NCCCCC(N)=O)N(C)C(=O)[C@H](CC(C)C)NC(=O)[C@H](CCN)NC(=O)CC[C@@H](NS(=O)(=O)c1ccc(NC(=O)c2ccc(C(N)=O)cc2)cc1)C(=O)O",
    "NUMERIC VALUE": 1900
  },
  {
    "COMPOUND STRUCTURE": "CC[C@H](C)[C@@H](C(=O)N1CCC[C@H]1CC(N)=O)N(C)C(=O)[C@H](CC(C)C)NC(=O)[C@H](CCN)NC(=O)CC[C@@H](NS(=O)(=O)c1ccc(NC(=O)c2ccc(C(N)=O)cc2)cc1)C(=O)O",
    "NUMERIC VALUE": 950
  },
  {
    "COMPOUND STRUCTURE": "CC[C@H](C)[C@@H](C(=O)NCCCCC(N)=O)N(C)C(=O)[C@H](CC(C)C)NC(=O)[C@@H]1CNCCN1C(=O)CC[C@@H](NS(=O)(=O)c1ccc(NC(=O)c2ccc(Cl)cc2)cc1)C(=O)O",
    "NUMERIC VALUE": 120
  },
  {
    "COMPOUND STRUCTURE": "CC[C@H](C)[C@@H](C(=O)NCCCCCC(N)=O)N(C)C(=O)[C@H](CC(C)C)NC(=O)[C@H](CCN)NC(=O)CC[C@@H](NS(=O)(=O)c1ccc(NC(=O)c2ccc(Cl)cc2)cc1)C(=O)O",
    "NUMERIC VALUE": 2600
  },
  {
    "COMPOUND STRUCTURE": "CC(C)C[C@H](NC(=O)[C@@H]1C[C@H](N)CN1C(=O)CC[C@@H](NS(=O)(=O)c1ccc(NC(=O)c2ccc(C(N)=O)cc2)cc1)C(=O)O)C(=O)N(C)[C@@H](CCC(=O)O)C(=O)NCCCCC(N)=O",
    "NUMERIC VALUE": 1100
  }
]

* * *

Target: Interstitial collagenase (Homo sapiens, UniProt P03956)
Sequence (P03956 whole entry): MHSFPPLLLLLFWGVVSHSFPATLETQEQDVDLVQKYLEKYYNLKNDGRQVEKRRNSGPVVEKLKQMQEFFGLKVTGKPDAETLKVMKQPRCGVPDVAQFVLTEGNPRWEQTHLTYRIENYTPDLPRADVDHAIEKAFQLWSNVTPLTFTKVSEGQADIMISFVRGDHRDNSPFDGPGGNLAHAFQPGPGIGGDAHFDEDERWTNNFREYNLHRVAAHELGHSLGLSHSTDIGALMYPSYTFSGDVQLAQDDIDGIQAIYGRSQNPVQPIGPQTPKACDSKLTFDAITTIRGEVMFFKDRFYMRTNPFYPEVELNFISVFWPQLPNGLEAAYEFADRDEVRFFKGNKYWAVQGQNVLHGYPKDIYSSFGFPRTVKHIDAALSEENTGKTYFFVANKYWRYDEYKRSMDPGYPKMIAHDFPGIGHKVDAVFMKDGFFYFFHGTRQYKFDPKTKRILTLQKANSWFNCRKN
Experiment: Inhibition of human recombinant MMP1 using MOCAc-Lys-Pro-Leu-Gly-Leu-A2pr(Dnp)-Ala-Arg-N2 as substrate preincubated for 15 mins followed by substrate addition and measured after 120 mins by fluorescence based assay
PARAMETER: IC50 (µM)

[
  {
    "COMPOUND STRUCTURE": "CC(C)C[C@H](NC(=O)[C@@H]1C[C@H](N)CN1C(=O)CC[C@@H](NS(=O)(=O)c1ccc(NC(=O)c2ccc(C(N)=O)cc2)cc1)C(=O)O)C(=O)N(C)[C@@H](CCC(=O)O)C(=O)NCCCCC(N)=O",
    "PARAMETER": "IC50",
    "NUMERIC VALUE": 270
  }
]

* * *

# Lookup of reported Ratio IC50 keyed by entry
Species: Homo sapiens
Assay: Selectivity ratio of IC50 for recombinant human MMP12 to IC50 for recombinant human MMP2
PARAMETER: Ratio IC50

[
  {
    "COMPOUND STRUCTURE": "CC[C@H](C)[C@@H](C(=O)NCCCC(N)=O)N(C)C(=O)[C@H](CC(C)C)NC(=O)[C@H](CCN)NC(=O)CC[C@@H](NS(=O)(=O)c1ccc(NC(=O)c2ccc(Cl)cc2)cc1)C(=O)O",
    "PARAMETER": "Ratio IC50",
    "NUMERIC VALUE": 1400
  },
  {
    "COMPOUND STRUCTURE": "CC[C@H](C)[C@@H](C(=O)N1CCC[C@H]1CC(N)=O)N(C)C(=O)[C@H](CC(C)C)NC(=O)[C@H](CCN)NC(=O)CC[C@@H](NS(=O)(=O)c1ccc(-c2ccccc2)cc1)C(=O)O",
    "PARAMETER": "Ratio IC50",
    "NUMERIC VALUE": 39
  },
  {
    "COMPOUND STRUCTURE": "CC[C@H](C)[C@@H](C(=O)NCCCCC(N)=O)N(C)C(=O)[C@H](CC(C)C)NC(=O)[C@@H]1C[C@H](N)CN1C(=O)CC[C@@H](NS(=O)(=O)c1ccc(NC(=O)c2ccc(C(N)=O)cc2)cc1)C(=O)O",
    "PARAMETER": "Ratio IC50",
    "NUMERIC VALUE": 550
  }
]

Ref: ChEMBL document CHEMBL5316300
